- assay-target: Estrogen receptor (Homo sapiens)
- measurement-description: qHTS assay to identify small molecule antagonists of the estrogen receptor alpha (ER-alpha) signaling pathway using the BG1 cell line in the presence of 0.1 nM 17-beta-estradiol (AID 1259244); also: % is scaled to controls: 0 for no effect and ±100 for the full control effect; nearly all actives have a fitted effect of over 50% in size
- condition-info: VM7Luc4E2 (BG1) ERE-luciferase, antagonist mode, 0.1 nM E2, 22 h; series mostly up to 92.4 µM
Inconclusive results are not listed. Calls of active or inactive are those of the source. Calls follow the shape of the dose curve; as a rule, active = well fitted inhibition curve with a large enough effect in the repeat runs; inconclusive = weak or mixed curves; inactive = no such curve, though single readings can be large or run the other way.

{"molecule": "CC(=O)N[C@@H](CS)C(=O)O", "outcome": "inactive"}
{"molecule": "C=CC(=O)OCCCCCCOC(=O)C=C", "outcome": "inactive"}
{"molecule": "O=c1n(CC2CO2)c(=O)n(CC2CO2)c(=O)n1CC1CO1 (stereo unspecified)", "outcome": "inactive"}
{"molecule": "C1COC(NC(C2CC2)C2CC2)=N1", "outcome": "inactive"}
{"molecule": "Nc1ccc2cc3ccccc3cc2c1", "outcome": "inactive"}
{"molecule": "c1ccc2c(c1)CCCC2C1=NCCN1 (stereo unspecified)", "outcome": "inactive"}

----------
- measurement-description: qHTS assay to identify small molecule antagonists of the peroxisome proliferator-activated receptor delta (PPARd) signaling pathway - cell viability counter screen (AID 743213); also: nearly all actives have a fitted effect of over 50% in size
- condition-info: PPARd-bla HEK293H viability, CellTiter-Glo luminescence, 17 h; series mostly up to 62 µM
Results filed as inconclusive are left out. Active and inactive are the calls of the source. Calls follow the shape of the dose curve; as a rule, active = well fitted cell-killing curve with a large enough effect in the repeat runs; inconclusive = weak or mixed curves; inactive = no such curve, though single readings can be large or run the other way.
Classes used: 1 (yes) = active, 0 (no) = inactive

{"molecule": "BrC1CCC(Br)C(Br)CCC(Br)C(Br)CCC1Br (configuration not stated)", "group-label": "1 (yes)"}
{"molecule": "O=C1Nc2ccccc2C1(c1ccc(O)cc1)c1ccc(O)cc1", "group-label": "0 (no)"}
{"molecule": "CC(C)(C)c1cc(C(C)(C)C)c(O)c(C(C)(C)C)c1", "group-label": "0 (no)"}
{"molecule": "C=CS(=O)(=O)O", "group-label": "0 (no)"}
{"molecule": "CC1=CC(=O)c2ccccc2C1=O", "group-label": "1 (yes)"}
{"molecule": "CCC(=O)/C=C/C1C(C)=CCCC1(C)C (configuration not stated)", "group-label": "0 (no)"}
{"molecule": "COC(=O)c1cccc(C(=O)OC)c1", "group-label": "0 (no)"}

----------
- measurement-description: qHTS assay to identify small molecule antagonists of the estrogen receptor alpha (ER-alpha) signaling pathway using the BG1 cell line (AID 743080);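 also: BG1 cells stimulated with 17beta-estradiol alongside compound; nearly all actives have a fitted effect of over 25% in size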
- condition-info: BG1Luc4E2 ERE-luciferase antagonist mode, luminescence; series mostly up to 70.3 µM
Records with an inconclusive call do not appear. Calls of active or inactive are those of the source. Calls come from the whole dose curve.
Outcome codes: Yes (active), No (inactive)

{"molecule": "O=C(O)CP(=O)(O)O", "group-label": "No"}
{"molecule": "CC(=O)C1=C(C)[C@@H]2C[C@@]3(C1)[C@H](C)CC[C@H]3C2(C)C", "group-label": "No"}
{"molecule": "c1cnc2cc3c(cc2n1)C1CNCC3C1", "group-label": "No"}
{"molecule": "CC(=O)CC(C)=O", "group-label": "No"}
{"molecule": "Clc1ccc2c(c1)C(N1CCNCC1)=Nc1ccccc1O2", "group-label": "Yes"}
{"molecule": "CC(C)(c1ccccc1)c1ccc(Nc2ccc(C(C)(C)c3ccccc3)cc2)cc1", "group-label": "No"}
{"molecule": "COc1cc(C(=S)N2CCOCC2)ccc1O", "group-label": "No"}
{"molecule": "Cc1ccc(-c2cc(C(F)(F)F)nn2-c2ccc(S(N)(=O)=O)cc2)cc1", "group-label": "No"}
{"molecule": "CN1C(=O)c2ccc([N+](=O)[O-])cc2C1=O", "group-label": "No"}
{"molecule": "C=CC(=O)OCCCCCCCC", "group-label": "No"}
{"molecule": "CCn1c2ccccc2c2cc(N)ccc21", "group-label": "No"}
{"molecule": "C=CS(=O)(=O)O", "group-label": "No"}
{"molecule": "C=C(C)C(=O)O", "group-label": "No"}
{"molecule": "C=C(C)C1CC=C(C)C(OC(C)=O)C1 (configuration not stated)", "group-label": "No"}
{"molecule": "CCOc1ccc2c(c1)C(C)=CC(C)(C)N2", "group-label": "No"}
{"molecule": "COc1ccc(Cc2cnc(N)nc2N)cc1OC", "group-label": "No"}
{"molecule": "O=C(Oc1ccccc1)c1ccccc1O", "group-label": "No"}
{"molecule": "CCCNC(C)C(=O)Nc1ccccc1C (configuration not stated)", "group-label": "No"}
{"molecule": "CCCCN(CCO)CCCC", "group-label": "No"}
{"molecule": "CC1COC(=O)O1 (configuration not stated)", "group-label": "No"}
{"molecule": "CCCCC/C=C/CC1CC(=O)OC1=O (configuration not stated)", "group-label": "No"}
{"molecule": "OCCN1CCNCC1", "group-label": "No"}
{"molecule": "CC(C)CCOCc1ccccc1", "group-label": "No"}
{"molecule": "O=C(O)c1cccc(C(=O)O)c1", "group-label": "No"}
{"molecule": "CCC(C)(Oc1ccc(C2(c3ccc(OC(C)(CC)C(=O)O)cc3)CCCCC2)cc1)C(=O)O (configuration not stated)", "group-label": "No"}
{"molecule": "CC(=O)CC(=O)Nc1ccc2[nH]c(=O)[nH]c2c1", "group-label": "No"}
{"molecule": "Nc1nc2ccccc2[nH]1", "group-label": "No"}
{"molecule": "CC1=CC(=O)c2ccccc2C1=O", "group-label": "Yes"}
{"molecule": "BrC1CCC(Br)C(Br)CCC(Br)C(Br)CCC1Br (configuration not stated)", "group-label": "No"}
{"molecule": "CCn1cc(C(=O)O)c(=O)c2cc(F)c(N3CCNC(C)C3)c(F)c21 (configuration not stated)", "group-label": "No"}
{"molecule": "CCCCOCCOC(=O)c1ccccc1C(=O)OCCOCCCC", "group-label": "No"}
{"molecule": "CCOc1ccccc1C(N)=O", "group-label": "No"}
{"molecule": "c1ccc2c(c1)CCCC2C1=NCCN1 (configuration not stated)", "group-label": "No"}
{"molecule": "CC(C)(C)c1cc(C(C)(C)C)c(O)c(C(C)(C)C)c1", "group-label": "No"}
{"molecule": "COc1nc(C)nc(Cl)c1NC1=NCCN1", "group-label": "No"}
{"molecule": "O=C1NCC2(CCN(CCc3ccccc3)CC2)O1", "group-label": "No"}
{"molecule": "C1COC(NC(C2CC2)C2CC2)=N1", "group-label": "No"}
{"molecule": "CC(=O)N[C@@H](CS)C(=O)O", "group-label": "No"}
{"molecule": "c1ccc2c(c1)-c1cccc3c1c-2cc1ccccc13", "group-label": "No"}
{"molecule": "CC(C)(O)CCC(C)(C)O", "group-label": "No"}
{"molecule": "CC[C@]1(O)C[C@@H]2CN(CCc3c([nH]c4ccccc34)[C@@](C(=O)OC)(c3cc4c(cc3OC)N(C)[C@H]3[C@@](O)(C(=O)OC)[C@H](OC(C)=O)[C@]5(CC)C=CCN6CC[C@]43[C@@H]65)C2)C1", "group-label": "Yes"}
{"molecule": "CCC[C@H](N[C@@H](C)C(=O)N1[C@H](C(=O)O)C[C@@H]2CCCC[C@@H]21)C(=O)OCC", "group-label": "No"}

----------
- measurement-description: qHTS RealTime-Glo MT Cell Viability Assay in HEK293 cells - 24 hour (AID 1224886); also: nearly all actives have a fitted effect of over 50% in size
- condition-info: RealTime-Glo luminescence; series mostly up to 76.8 µM
Results filed as inconclusive are left out. Calls of active or inactive are those of the source. Calls come from the whole dose curve; as a rule, active = well fitted cell-killing curve with a large enough effect in the repeat runs; inconclusive = weak or mixed curves, or effect the other way; inactive = flat fitted curve, though single readings scatter.
Labels: T = active, F = inactive

{"molecule": "CCCCC/C=C/CC1CC(=O)OC1=O (stereo not given)", "group-label": "F"}
{"molecule": "Cc1ccnc2c1NC(=O)c1cccnc1N2C1CC1", "group-label": "F"}
{"molecule": "O=C(O[C@@H]1Cc2c(O)cc(O)cc2O[C@@H]1c1cc(O)c(O)c(O)c1)c1cc(O)c(O)c(O)c1", "group-label": "T"}
{"molecule": "BrC1CCC(Br)C(Br)CCC(Br)C(Br)CCC1Br (stereo not given)", "group-label": "F"}
{"molecule": "CCC(CO)(CO)COCC(CC)(CO)CO", "group-label": "F"}

----------
- measurement-description: qHTS assay for small molecule activators of the heat shock response signaling pathway (AID 743210);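 as to activation: HeLa cells with beta-lactamase reporter driven by heat shock elements; % is scaled to controls: 0 for no effect and ±100 for the full control effect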
- condition-info: HeLa HSE-bla reporter, beta-lactamase ratio, 5 h; series mostly up to 62.6 µM
Inconclusive results are not listed. The source made the active and inactive calls. Calls follow the shape of the dose curve; as a rule, active = well fitted activation curve with a large enough effect in the signal ratio in the repeat runs, with a control signal flat (not every such curve was filed as active); inconclusive = weak or mixed curves; inactive = flat fitted curve, though single readings scatter; the % refers to the signal ratio.
Outcomes: true (1) for active, false (0) for inactive

{"compound": "O=C(O)CP(=O)(O)O", "group-label": "false (0)"}
{"compound": "O=C1CC2(CCCC2)CC(=O)N1CCCCN1CCN(c2ncccn2)CC1", "group-label": "false (0)"}
{"compound": "O=C(Cl)c1cccc(C(=O)Cl)c1", "group-label": "false (0)"}
{"compound": "CCCCCCCCCCCC[N+](C)(C)C", "group-label": "false (0)"}
{"compound": "CC1COc2c(N3CCN(C)CC3)c(F)cc3c(=O)c(C(=O)O)cn1c23 (centres undefined)", "group-label": "false (0)"}
{"compound": "NNCCc1ccccc1", "group-label": "false (0)"}
{"compound": "O=C(O)c1cc(Cl)cc(Cl)c1", "group-label": "false (0)"}
{"compound": "CCN(CC)c1ccc2c(C)cc(=O)oc2c1", "group-label": "true (1)"}
{"compound": "CCN1CCCC1CNC(=O)c1cc(S(=O)(=O)CC)c(N)cc1OC (centres undefined)", "group-label": "false (0)"}
{"compound": "NCCO", "group-label": "false (0)"}
{"compound": "CC(=O)CC(C)=O", "group-label": "false (0)"}
{"compound": "OCC(CO)N[C@H]1C[C@](O)(CO)[C@@H](O)[C@H](O)[C@H]1O", "group-label": "false (0)"}
{"compound": "c1cnc2cc3c(cc2n1)C1CNCC3C1", "group-label": "false (0)"}
{"compound": "Cc1ccc(S(=O)(=O)Oc2ccc(N=Nc3ccc(-c4ccc(N=Nc5c(O)ccc6cc(S(=O)(=O)O)cc(S(=O)(=O)O)c56)c(C)c4)cc3C)cc2)cc1", "group-label": "false (0)"}
{"compound": "O=C(Oc1ccccc1)c1ccccc1O", "group-label": "false (0)"}
{"compound": "CCC(C)(Oc1ccc(C2(c3ccc(OC(C)(CC)C(=O)O)cc3)CCCCC2)cc1)C(=O)O (centres undefined)", "group-label": "false (0)"}
{"compound": "Cc1cccc(O)c1C", "group-label": "false (0)"}
{"compound": "O=C1Nc2ccccc2C1(c1ccc(O)cc1)c1ccc(O)cc1", "group-label": "false (0)"}
{"compound": "c1ccc2n[nH]nc2c1", "group-label": "false (0)"}

The values you see were collected from PubChem BioAssay (Tox21).
